measurementTarget: T1, mouse recombinant NKG2D-Fc (mouse; human, UniProt O54709 90-232)
T1 construct: extracellular domain; also called recombinant mouse NKG2D-Fc; Mouse NKG2D-Fc-biotin; not shown: human IgG1 Fc domain
T1 sequence (looked up): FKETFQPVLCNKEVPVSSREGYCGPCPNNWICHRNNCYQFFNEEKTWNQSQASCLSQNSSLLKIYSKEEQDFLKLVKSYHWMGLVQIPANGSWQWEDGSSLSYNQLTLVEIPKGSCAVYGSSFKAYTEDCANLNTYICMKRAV
measurementNotes: ELISA on coated NKG2D-Fc;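 also: titrated NKG2D binders added to plates coated with human, mouse or cynomolgus NKG2D ectodomain–human IgG1 Fc fusions, detected by HRP anti-human kappa antibody with TMB, absorbance at 450 nm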
measure: binding result

1) ADI-29405 (antibody, V domains shown) VH: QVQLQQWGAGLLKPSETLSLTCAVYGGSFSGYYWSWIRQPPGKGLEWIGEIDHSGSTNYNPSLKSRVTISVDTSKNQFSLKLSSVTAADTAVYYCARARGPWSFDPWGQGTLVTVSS VL: DIQMTQSPSTLSASVGDRVTITCRASQSISSWLAWYQQKPGKAPKLLIYKASSLESGVPSRFSGSGSGTEFTLTISSLQPDDFATYYCQQYGSFPTFGGGTKVEIK	binds
2) ADI-29424 (antibody, V domains shown) VH: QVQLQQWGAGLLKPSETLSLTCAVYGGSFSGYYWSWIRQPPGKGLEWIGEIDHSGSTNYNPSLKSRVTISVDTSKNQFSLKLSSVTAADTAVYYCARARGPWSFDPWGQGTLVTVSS VL: DIQMTQSPSTLSASVGDRVTITCRASQSISSWLAWYQQKPGKAPKLLIYKASSLESGVPSRFSGSGSGTEFTLTISSLQPDDFATYYCQQYDSFITFGGGTKVEIK	binds
